Tested on: Saccharomyces cerevisiae BY4741 SeMeCo community
Experiment: z-score of subpopulation abundance vs DMSO median, subpopulation auxotrophic for HLM; higher = larger share of this subpopulation than in DMSO controls
Conditions: 10 µM; 24 h; SM minimal medium; subpopulation (auxotrophy): HLM
Where a name gives a salt, the structure may show the parent alone.
quantity kind: z-score of subpopulation abundance
// response body must contain only the number

Exercise: Please report the measured z-score of subpopulation abundance for CN[C@@H]1[C@H](O[C@H]2[C@H](O[C@H]3[C@H](O)[C@@H](O)[C@H](N=C(N)N)[C@@H](O)[C@@H]3N=C(N)N)O[C@@H](C)[C@]2(O)C=O)O[C@@H](CO)[C@H](O)[C@H]1O [Streptomycin sulfate]
Solution: -0.57

Next:
Exercise: Please report the measured z-score of subpopulation abundance for C[C@H]1c2cccc(O)c2C(O)=C2C(=O)[C@]3(O)C(O)=C(C(N)=O)C(=O)[C@@H](N(C)C)[C@@H]3[C@@H](O)[C@@H]21 [Doxycycline]
Solution: -0.1

Exercise: Please report the measured z-score of subpopulation abundance for O=C(Nc1cc(Cl)cc(Cl)c1O)c1c(O)c(Cl)cc(Cl)c1Cl [Oxyclozanide]
Solution: 0.96

Exercise: Please report the measured z-score of subpopulation abundance for CCCCCNC(=N)N/N=C/c1c[nH]c2ccc(OC)cc12 [Tegaserod Maleate]
Solution: 1.63

Exercise: Please report the measured z-score of subpopulation abundance for C[C@]12CC[C@@H]3c4ccc(OC(=O)c5ccccc5)cc4CC[C@H]3[C@@H]1CC[C@@H]2O [Estradiol Benzoate]
Solution: -0.6

Exercise: Please report the measured z-score of subpopulation abundance for C#CCN(C)Cc1ccccc1 [Pargyline hydrochloride]
Solution: -0.13

Exercise: Please report the measured z-score of subpopulation abundance for CC[C@@]1(O)C(=O)OCc2c1cc1n(c2=O)Cc2cc3c(CN(C)C)c(O)ccc3nc2-1 [Topotecan HCl]
Solution: 0.12

###

Tested on: Saccharomyces cerevisiae BY4741 SeMeCo community
Experiment: z-score of subpopulation abundance vs DMSO median, subpopulation auxotrophic for H; higher = larger share of this subpopulation than in DMSO controls
Conditions: 10 µM; 24 h; SM minimal medium; subpopulation (auxotrophy): H
Structures can show the parent of a compound that is named as a salt.
Please enter yes where z-score of subpopulation abundance is greater than or equal to 0.3, and no where it is lower.

Here are 2 compounds together with their reported answers.
Exercise: Does the reported z-score of subpopulation abundance for CCOC(=O)c1ccc(N)cc1 [Benzocaine] fall at or above the 0.3 mark?
Solution: no

Exercise: Does the reported z-score of subpopulation abundance for O=C(O)c1cn(-c2ccc(F)cc2)c2cc(N3CCNCC3)c(F)cc2c1=O [Sarafloxacin HCl] fall at or above the 0.3 mark?
Solution: no

Next:
Exercise: Does the reported z-score of subpopulation abundance for CCCCCCCCCC(=O)N[C@@H](Cc1c[nH]c2ccccc12)C(=O)N[C@H](CC(N)=O)C(=O)N[C@@H](CC(=O)O)C(=O)N[C@@H]1C(=O)NCC(=O)N[C@@H](CCCN)C(=O)N[C@@H](CC(=O)O)C(=O)N[C@H](C)C(=O)N[C@@H](CC(=O)O)C(=O)NCC(=O)N[C@H](CO)C(=O)N[C@@H]([C@H](C)CC(=O)O)C(=O)N[C@@H](CC(=O)c2ccccc2N)C(=O)O[C@@H]1C fall at or above the 0.3 mark?
Solution: yes

Exercise: Does the reported z-score of subpopulation abundance for CCOC(=O)OC(C)OC1=C(C(=O)Nc2ccccn2)N(C)S(=O)(=O)c2ccccc21 (stereo unspecified) fall at or above the 0.3 mark?
Solution: no

Exercise: Does the reported z-score of subpopulation abundance for CCCCCOc1ccccc1/C(=C\SC)n1ccnc1 [Neticonazole Hydrochloride] fall at or above the 0.3 mark?
Solution: yes

Exercise: Does the reported z-score of subpopulation abundance for O=c1cc(-c2ccc(O)c(O)c2)oc2cc(O)cc(O)c12 fall at or above the 0.3 mark?
Solution: no

The origin of these recorded values is the supplement of paper PMC8975748.
